Target: CDK2/Cyclin A (Homo sapiens)
Assay: Inhibition of CDK2/Cyclin A Retinoblastoma Kinase Activity
Settings: apparent Ki, CDK2/proteolyzed cyclin A, Rb fragment substrate, 25 μM ATP
Structures can show the parent of a compound that is named as a salt.
pKi reference
Please note pKi is a logarithmic value: minus log10 of concentration in mol/L. Answer with that number alone.

Nc1nc(NC2CCN(S(=O)(=O)CCNCc3cccc(F)c3F)CC2)sc1C(=O)c1c(F)cccc1F :: 9.09
Nc1nc(NC2CCN(S(=O)(=O)CCCNc3ccccn3)CC2)sc1C(=O)c1c(F)cccc1F [Example K56, Trifluoroacetic Acid Salt] :: 8.10
Nc1nc(NC2CCN(S(=O)(=O)CCCn3ccnn3)CC2)sc1C(=O)c1c(F)cccc1F :: 8.36
CC[C@@H](NCCS(=O)(=O)N1CCC(Nc2nc(N)c(C(=O)c3c(F)cccc3F)s2)CC1)c1ccccc1 :: 9.09
CN(CCCS(=O)(=O)N1CCC(Nc2nc(N)c(C(=O)c3c(F)cccc3F)s2)CC1)Cc1ccco1 :: 7.96
Nc1nc(NC2CCN(S(=O)(=O)CCCNC3CCCCC3)CC2)sc1C(=O)c1c(F)cccc1F :: 8.10

Prompt: CDK2/Cyclin A (Homo sapiens) / pKi / Nc1nc(NC2CCN(S(=O)(=O)c3ccc(-c4ncc[nH]4)nc3)CC2)sc1C(=O)c1c(F)cccc1F [Example I1, Hydrochloride] : value?
Response: 9.59

Prompt: Ok, now Cc1noc(C)c1S(=O)(=O)N1CCC(Nc2nc(N)c(C(=O)c3c(F)cccc3F)s2)CC1
Response: 7.92

###

Biological target: human CDK4 and genetically truncated (1-264) cyclin D3 (Homo sapiens)
Sequence (P11802 whole entry, the tested form may be a part): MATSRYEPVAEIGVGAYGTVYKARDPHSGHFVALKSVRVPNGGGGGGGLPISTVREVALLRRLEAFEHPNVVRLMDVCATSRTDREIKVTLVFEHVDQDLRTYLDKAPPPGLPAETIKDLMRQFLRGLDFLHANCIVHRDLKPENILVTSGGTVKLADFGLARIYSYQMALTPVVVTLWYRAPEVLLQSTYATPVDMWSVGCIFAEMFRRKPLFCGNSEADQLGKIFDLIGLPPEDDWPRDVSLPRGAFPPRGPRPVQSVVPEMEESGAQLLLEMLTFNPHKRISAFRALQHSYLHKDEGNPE
Sequence (P30281 1-264 partner): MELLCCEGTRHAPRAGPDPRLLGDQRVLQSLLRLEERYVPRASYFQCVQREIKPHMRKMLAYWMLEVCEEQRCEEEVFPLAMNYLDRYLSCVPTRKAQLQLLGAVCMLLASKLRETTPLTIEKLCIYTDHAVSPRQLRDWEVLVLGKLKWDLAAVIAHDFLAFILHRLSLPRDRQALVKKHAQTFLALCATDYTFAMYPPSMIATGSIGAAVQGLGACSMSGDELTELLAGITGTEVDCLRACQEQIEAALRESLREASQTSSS
Assay: Inhibition of CDK4/Cyclin D Retinoblastoma Kinase Activity
Conditions: apparent Ki, CDK4/truncated cyclin D3, Rb fragment substrate, 25 μM ATP
Counter-ions that a name gives are not always drawn.
Metric name: pKi
Scale: negative log10 of molar concentration, which is what pKi denotes.

CN(C)CCCc1ccc(S(=O)(=O)N2CCC(Nc3nc(N)c(C(=O)c4c(F)cccc4F)s3)CC2)cc1 :: 9.17
Nc1nc(NC2CCN(C(=O)c3ccc(I)cc3)CC2)sc1C(=O)c1c(F)cccc1F :: 7.96
COc1ccc(S(=O)(=O)N2CCC(Nc3nc(N)c(C(=O)c4c(F)cccc4F)s3)CC2)cn1 :: 8.92
Nc1nc(NC2CCN(S(=O)(=O)CCCn3ccnc3)CC2)sc1C(=O)c1c(F)cccc1F :: 8.33
Nc1nc(NC2CCN(S(=O)(=O)c3ccc([N+](=O)[O-])cn3)CC2)sc1C(=O)c1c(F)cccc1F :: 6.40
CN1CCCC1c1ccc(S(=O)(=O)N2CCC(Nc3nc(N)c(C(=O)c4c(F)cccc4F)s3)CC2)cc1 (stereo not drawn) [Example F24, Dihydrochloride] :: 9.47
CC(C)OC(=O)NS(=O)(=O)N1CCC(Nc2nc(N)c(C(=O)c3c(F)cccc3F)s2)CC1 :: 6.77
CC1(C)CN(c2ccc(S(=O)(=O)N3CCC(Nc4nc(N)c(C(=O)c5c(F)cccc5F)s4)CC3)cn2)CCN1 :: 9.66

Prompt: Which pKi is reported for this compound? CS(=O)(=O)N1CCC(Nc2nc(N)c(C(=O)c3c(F)cccc3F)s2)C1 (stereo not drawn)
Response: 6.48

Prompt: Cool, now Nc1nc(NC2CCN(S(=O)(=O)c3ccc(N4CCC(O)CC4)nc3)CC2)sc1C(=O)c1c(F)cccc1F
Response: 8.66

Prompt: Can you handle Nc1nc(NC2CCN(S(=O)(=O)CCc3ccccn3)CC2)sc1C(=O)c1c(F)cccc1F next?
Response: 8.09

Prompt: Similarly, CN1CCN(c2ccc(S(=O)(=O)N3CCC(Nc4nc(N)c(C(=O)c5c(F)cccc5F)s4)CC3)cn2)CC1 ?
Response: 8.89

Prompt: Then what about the compound CN1CCN(CCCS(=O)(=O)N2CCC(Nc3nc(N)c(C(=O)c4c(F)cccc4F)s3)CC2)CC1 ?
Response: 8.55

Prompt: Consider next the compound CCCN(CCCS(=O)(=O)N1CCC(Nc2nc(N)c(C(=O)c3c(F)cccc3F)s2)CC1)CC1CC1 in the same way.
Response: 8.82

###

Here the recorded CDK2 % Inhibition at 0.03 μM is given for each entry.
Target: CDK2/Cyclin A (Homo sapiens, UniProt P24941)
Assay: Inhibition of CDK2/Cyclin A Retinoblastoma Kinase Activity
Format: biochemical
Details: at 0.03 μM
Give a bare numeral; the unit % is implied.

Answered examples (4):
CCCCCc1ccc(C(=O)N2CCC(Nc3nc(N)c(C(=O)c4c(F)cccc4F)s3)CC2)cc1 [Example R158] :: 24
Nc1nc(NC2CCN(C(=O)c3c(Cl)cc(Cl)cc3Cl)CC2)sc1C(=O)c1c(F)cccc1F [Example R56] :: 14
C=Cc1ccc(C(=O)N2CCC(Nc3nc(N)c(C(=O)c4c(F)cccc4F)s3)CC2)cc1 [Example R156] :: 65
CCOc1ccccc1C(=O)N1CCC(Nc2nc(N)c(C(=O)c3c(F)cccc3F)s2)CC1 [Example R119] :: 27

Query compound follows.
Prompt: I am curious: what CDK2 % Inhibition at 0.03 μM value has been reported for CC(C)=CCCC(C)CC(=O)N1CCC(Nc2nc(N)c(C(=O)c3c(F)cccc3F)s2)CC1 (stereo not shown) [Example R170] ?
Response: 21

###

Target: CDK2/Cyclin A (Homo sapiens, UniProt P24941)
Test: Inhibition of CDK2/Cyclin A Retinoblastoma Kinase Activity
Settings: apparent Ki, CDK2/proteolyzed cyclin A, Rb fragment substrate, 25 μM ATP
Structures can show the parent of a compound that is named as a salt.
Ki less than 3 nM is True; Ki greater than or equal to 3 nM is False.

Illustrative cases are given below, each with its answer.
Nc1nc(NC2CCN(S(=O)(=O)c3ccc(Sc4ccccn4)nc3)CC2)sc1C(=O)c1c(F)cccc1F [Example L2, Dihydrochloride] :: True
Nc1nc(NC2CCN(C(=O)[C@@H]3CCC(=O)O3)CC2)sc1C(=O)c1c(F)cccc1F :: False
CN1CCCC1CCSc1ccc(S(=O)(=O)N2CCC(Nc3nc(N)c(C(=O)c4c(F)cccc4F)s3)CC2)cn1 (stereo not shown) [Example L6, Dihydrochloride] :: True
Nc1nc(NC2CCN(S(=O)(=O)c3ccc(-c4ncc[nH]4)cc3)CC2)sc1C(=O)c1c(F)cccc1F :: True
Nc1nc(NC2CCN(S(=O)(=O)c3cnc(OCCN4CCOCC4)nc3)CC2)sc1C(=O)c1c(F)cccc1F [Example H22, Trifluoroacetic Acid Salt] :: True

Prompt: Is it true that Ki reported for Nc1nc(NC2CCN(C(=O)c3cccc([N+](=O)[O-])c3)CC2)sc1C(=O)c1c(F)cccc1F is less than 3 nM?
Response: False

###

System: HCT-116 cell line
Assay: Inhibition of cell growth, tetrazolium salt (MTT) assay
Assay type: cell-based
Details: Homo sapiens, HCT-116, 120 h, first HCT-116 column (c4); MTT, three to five days; read-out: HCT-116 IC50
Where a name gives a salt, the structure may show the parent alone.
Metric name: IC50 (nM)
Number in nM, nothing else.

Would you please look over these solved cases?
CN(C)CCCSc1ccc(S(=O)(=O)N2CCC(Nc3nc(N)c(C(=O)c4c(F)cccc4F)s3)CC2)cn1 [Example L5, Dihydrochloride] :: 70
Nc1nc(NC2CCN(S(=O)(=O)c3ccc(CN4CCCC4)cc3)CC2)sc1C(=O)c1c(F)cccc1F [Example J6, Hydrochloride] :: 390
Nc1nc(NC2CCN(S(=O)(=O)c3ccc(-c4ncc[nH]4)nc3)CC2)sc1C(=O)c1c(F)cccc1F [Example I1, Hydrochloride] :: 300
Nc1nc(NC2CCN(S(=O)(=O)c3ccc(NCCO)nc3)CC2)sc1C(=O)c1c(F)cccc1F :: 1700
Nc1nc(NC2CCN(Cc3ccccc3)CC2)sc1C(=O)c1c(F)cccc1F :: 1700

Prompt: Bench note: what IC50 did CN1CC[C@@H](c2ccc(S(=O)(=O)N3CCC(Nc4nc(N)c(C(=O)c5c(F)cccc5F)s4)CC3)cc2)C1 show?
Response: 90

Prompt: Same question, Nc1nc(NC2CCN(S(=O)(=O)c3ccc(CCN4CCCC4)nc3)CC2)sc1C(=O)c1c(F)cccc1F [Example N2, Hydrochloride Salt] this time
Response: 230

###

Target: human CDK4 and genetically truncated (1-264) cyclin D3 (Homo sapiens)
Assay: Inhibition of CDK4/Cyclin D Retinoblastoma Kinase Activity
Assay type: biochemical
Details: 0.03 μM compound; Table 4
CDK4 % Inhibition at 0.03 μM for assorted compounds
Numbers only here, please. The scale is %.

Nc1nc(NC2CCN(C(=O)c3ccc(F)c(F)c3)CC2)sc1C(=O)c1c(F)cccc1F :: 78

Prompt: Could you tell me which CDK4 % Inhibition at 0.03 μM is on file for Nc1nc(NC2CCN(C(=O)Oc3ccccc3)CC2)sc1C(=O)c1c(F)cccc1F ?
Response: 78

Prompt: And then Nc1nc(NC2CCN(C(=O)C3CCCCC3)CC2)sc1C(=O)c1c(F)cccc1F , what is it?
Response: 14

Prompt: Same for Nc1nc(NC2CCN(C(=O)c3cccc4ccccc34)CC2)sc1C(=O)c1c(F)cccc1F
Response: 49
